# Lookup of reported Off-rate ELISA (normalized to XAB1 Fab) keyed by entry
tgt: T1, human IL-17A (construct not stated) (human, UniProt Q16552 24-155, limits assumed)
T1 construct: also called huIL-17A; human IL-17A biotin
T1 sequence: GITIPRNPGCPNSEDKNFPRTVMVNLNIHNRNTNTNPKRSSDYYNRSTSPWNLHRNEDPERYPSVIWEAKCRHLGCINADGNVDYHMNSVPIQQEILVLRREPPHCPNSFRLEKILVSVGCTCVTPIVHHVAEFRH
assay.overview: ELISA on coated huIL-17A, crude Fab extract, wash of at least 3 h

What value of Off-rate ELISA (normalized to XAB1 Fab) has been reported for the following binder? MB457 (Fab, V domains shown, 30 stays I); heavy chain C-terminal Flag tag) VH: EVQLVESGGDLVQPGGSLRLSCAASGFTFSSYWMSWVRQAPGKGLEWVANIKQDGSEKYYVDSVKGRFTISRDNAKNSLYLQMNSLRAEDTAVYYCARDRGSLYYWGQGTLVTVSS VL: AIQLTQSPSSLSASVGDRVTITCRPSQGIIWSLAWYQQKPGKAPKLLIYDASSLENGVPSRFSGSGSGTDFTLTISSLQPEDFATYYCQQFNSYPLTFGGGTKVEIK
34.7 ratio to XAB1 Fab

Again, but for MB433 (Fab, V domains shown, heavy chain C-terminal Flag tag) VH: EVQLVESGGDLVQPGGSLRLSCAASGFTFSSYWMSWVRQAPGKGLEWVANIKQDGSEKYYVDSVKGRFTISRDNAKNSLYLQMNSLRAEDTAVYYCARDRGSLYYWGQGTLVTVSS VL: AIQLTQSPSSLSASVGDRVTITCRPSQGIYWGLAWYQQKPGKAPKLLIYDASSLENGVPSRFSGSGSGTDFTLTISSLQPEDFATYYCQQFNSYPLTFGGGTKVEIK
39.7 ratio to XAB1 Fab

Again, but for MB464 (Fab, V domains shown, 30 stays I); heavy chain C-terminal Flag tag) VH: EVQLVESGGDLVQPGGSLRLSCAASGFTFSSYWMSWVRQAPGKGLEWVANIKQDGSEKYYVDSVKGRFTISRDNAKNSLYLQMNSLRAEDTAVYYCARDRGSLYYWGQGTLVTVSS VL: AIQLTQSPSSLSASVGDRVTITCRPSQGIIYQLAWYQQKPGKAPKLLIYDASSLENGVPSRFSGSGSGTDFTLTISSLQPEDFATYYCQQFNSYPLTFGGGTKVEIK
34.9 ratio to XAB1 Fab

Again, but for MB440 (Fab, V domains shown, heavy chain C-terminal Flag tag) VH: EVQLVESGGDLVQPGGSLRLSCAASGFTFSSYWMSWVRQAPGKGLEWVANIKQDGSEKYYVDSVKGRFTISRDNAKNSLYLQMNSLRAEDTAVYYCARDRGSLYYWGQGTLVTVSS VL: AIQLTQSPSSLSASVGDRVTITCRPSQGILWQLAWYQQKPGKAPKLLIYDASSLENGVPSRFSGSGSGTDFTLTISSLQPEDFATYYCQQFNSYPLTFGGGTKVEIK
52.5 ratio to XAB1 Fab

Again, but for MB444 (Fab, V domains shown, heavy chain C-terminal Flag tag) VH: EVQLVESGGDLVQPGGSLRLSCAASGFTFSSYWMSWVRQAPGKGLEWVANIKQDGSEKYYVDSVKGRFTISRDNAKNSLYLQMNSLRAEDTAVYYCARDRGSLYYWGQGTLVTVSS VL: AIQLTQSPSSLSASVGDRVTITCRPSQGILWELAWYQQKPGKAPKLLIYDASSLENGVPSRFSGSGSGTDFTLTISSLQPEDFATYYCQQFNSYPLTFGGGTKVEIK
48.9 ratio to XAB1 Fab

Again, but for MB438 (Fab, V domains shown, 32 stays A); heavy chain C-terminal Flag tag) VH: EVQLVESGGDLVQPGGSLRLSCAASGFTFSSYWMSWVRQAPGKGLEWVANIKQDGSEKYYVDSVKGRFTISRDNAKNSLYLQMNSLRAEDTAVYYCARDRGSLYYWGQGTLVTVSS VL: AIQLTQSPSSLSASVGDRVTITCRPSQGIPYALAWYQQKPGKAPKLLIYDASSLENGVPSRFSGSGSGTDFTLTISSLQPEDFATYYCQQFNSYPLTFGGGTKVEIK
41.5 ratio to XAB1 Fab

Again, but for MB486 (Fab, V domains shown, heavy chain C-terminal Flag tag) VH: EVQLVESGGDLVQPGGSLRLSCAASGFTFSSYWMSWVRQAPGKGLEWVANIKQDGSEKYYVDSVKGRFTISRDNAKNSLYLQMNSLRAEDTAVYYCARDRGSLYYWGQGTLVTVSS VL: AIQLTQSPSSLSASVGDRVTITCRPSQGIWWMLAWYQQKPGKAPKLLIYDASSLENGVPSRFSGSGSGTDFTLTISSLQPEDFATYYCQQFNSYPLTFGGGTKVEIK
58.5 ratio to XAB1 Fab

Again, but for MB447 (Fab, V domains shown, heavy chain C-terminal Flag tag) VH: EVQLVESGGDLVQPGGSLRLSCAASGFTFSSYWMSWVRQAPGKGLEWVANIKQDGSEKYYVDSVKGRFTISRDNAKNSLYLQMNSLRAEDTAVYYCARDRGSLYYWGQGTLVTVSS VL: AIQLTQSPSSLSASVGDRVTITCRPSQGIFWWLAWYQQKPGKAPKLLIYDASSLENGVPSRFSGSGSGTDFTLTISSLQPEDFATYYCQQFNSYPLTFGGGTKVEIK
45.5 ratio to XAB1 Fab

Again, but for MB454 (Fab, V domains shown, 32 stays A); heavy chain C-terminal Flag tag) VH: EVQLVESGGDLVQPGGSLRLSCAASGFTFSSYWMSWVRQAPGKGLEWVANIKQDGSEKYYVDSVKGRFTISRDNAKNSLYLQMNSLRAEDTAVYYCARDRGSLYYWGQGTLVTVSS VL: AIQLTQSPSSLSASVGDRVTITCRPSQGILWALAWYQQKPGKAPKLLIYDASSLENGVPSRFSGSGSGTDFTLTISSLQPEDFATYYCQQFNSYPLTFGGGTKVEIK
34.2 ratio to XAB1 Fab

Again, but for MB491 (Fab, V domains shown, heavy chain C-terminal Flag tag) VH: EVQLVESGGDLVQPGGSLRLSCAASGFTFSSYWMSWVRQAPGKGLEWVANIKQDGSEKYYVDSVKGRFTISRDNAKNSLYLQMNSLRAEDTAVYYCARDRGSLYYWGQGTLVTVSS VL: AIQLTQSPSSLSASVGDRVTITCRPSQGIFFWLAWYQQKPGKAPKLLIYDASSLENGVPSRFSGSGSGTDFTLTISSLQPEDFATYYCQQFNSYPLTFGGGTKVEIK
43 ratio to XAB1 Fab

Cited source: patent US20180194839A1
